Please go through the items and note down their Activity.
target: Bromodomain-containing protein 3 (Homo sapiens) (UniProt Q15059); assay: Binding affinity of recombinant His-tagged BRD3-BD2 (unknown origin) to histone H4Ac (1 to 21 residues) K5/8/12/Ac-Biotin-OH assessed as residual binding at 10 uM incubated for 30 mins by alphascreen analysis relative to control
Sequence (Q15059 2-726 limits assumed): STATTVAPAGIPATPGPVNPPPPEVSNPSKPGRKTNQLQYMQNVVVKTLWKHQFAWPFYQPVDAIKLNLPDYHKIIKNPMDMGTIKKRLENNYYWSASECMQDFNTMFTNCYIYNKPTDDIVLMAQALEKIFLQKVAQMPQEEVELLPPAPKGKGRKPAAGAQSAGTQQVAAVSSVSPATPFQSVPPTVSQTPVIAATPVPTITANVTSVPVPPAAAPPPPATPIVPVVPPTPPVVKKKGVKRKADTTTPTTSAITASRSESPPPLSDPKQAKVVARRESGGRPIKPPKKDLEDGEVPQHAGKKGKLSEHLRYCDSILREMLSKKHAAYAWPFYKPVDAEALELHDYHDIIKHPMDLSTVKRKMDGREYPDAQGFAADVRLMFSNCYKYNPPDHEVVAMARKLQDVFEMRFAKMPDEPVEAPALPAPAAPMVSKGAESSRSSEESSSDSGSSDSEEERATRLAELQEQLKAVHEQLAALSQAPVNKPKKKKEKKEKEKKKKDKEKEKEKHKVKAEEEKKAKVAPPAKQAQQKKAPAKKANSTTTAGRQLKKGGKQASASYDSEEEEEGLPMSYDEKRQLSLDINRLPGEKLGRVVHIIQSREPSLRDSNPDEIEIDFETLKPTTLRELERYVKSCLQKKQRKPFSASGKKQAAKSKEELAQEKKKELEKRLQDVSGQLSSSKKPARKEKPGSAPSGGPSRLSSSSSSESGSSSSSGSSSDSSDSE
Just the number in %, nothing appended.

Prompt line: Consider the compound CCc1nn(CC)c(=O)n1-c1cccc(C(F)(F)F)c1 and give its recorded Activity.
Response line: 97.4

Prompt line: Consider the compound CCn1nc(C)n(-c2ccc(F)c(Cl)c2)c1=O and give its recorded Activity.
Response line: 93.3

Prompt line: Consider the compound CCc1nn(C)c(=O)n1-c1ccc(OC)c(OC)c1 and give its recorded Activity.
Response line: 97.7

Prompt line: Consider the compound Cc1nn(C)c(=O)n1-c1ccc2c(c1)OCO2 and give its recorded Activity.
Response line: 94.9

Prompt line: Consider the compound CCn1nc(C)n(-c2ccc3c(c2)OCO3)c1=O and give its recorded Activity.
Response line: 99.9

Prompt line: Consider the compound CCc1nn(C)c(=O)n1-c1ccc(F)c(Cl)c1 and give its recorded Activity.
Response line: 98.3
